Target: T1, human epidermal growth factor receptor 2 (HER2) (human, UniProt P04626 23-1255)
T1 construct: whole, on cells; One entry for endogenous HER2 on tumor cell lines and for the fully human construct hu-HER2 on CHO-S cells; also called ErbB-2; hu-HER2
Assay: flow cytometry on AU565 cells (high HER2), PE-goat anti-human IgG, MFI; EC50 by non-linear regression (Example 12)
// EC50 lookup, one value per entry
Output spec: scalar in µg/mL, unitless text.

Worked cases, answers included:
HER2 HuMab 050 (antibody, V domains shown, also called PC1014-050) VH: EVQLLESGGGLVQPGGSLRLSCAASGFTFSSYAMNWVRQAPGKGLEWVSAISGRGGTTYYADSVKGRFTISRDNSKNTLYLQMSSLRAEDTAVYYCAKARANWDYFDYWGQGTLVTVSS VL: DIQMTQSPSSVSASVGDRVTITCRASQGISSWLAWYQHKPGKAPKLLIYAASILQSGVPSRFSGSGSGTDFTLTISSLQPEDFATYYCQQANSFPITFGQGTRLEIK
0.722
HER2 HuMab 091 (antibody, V domains shown, also called PC1014-091) VH: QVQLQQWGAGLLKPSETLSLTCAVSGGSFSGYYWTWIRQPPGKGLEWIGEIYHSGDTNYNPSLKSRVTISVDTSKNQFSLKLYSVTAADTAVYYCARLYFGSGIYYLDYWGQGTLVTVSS VL: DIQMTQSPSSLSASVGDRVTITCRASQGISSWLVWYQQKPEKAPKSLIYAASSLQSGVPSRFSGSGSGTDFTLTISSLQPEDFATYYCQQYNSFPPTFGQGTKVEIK
0.965
HER2 HuMab 084 (antibody, V domains shown, also called PC1014-084) VH: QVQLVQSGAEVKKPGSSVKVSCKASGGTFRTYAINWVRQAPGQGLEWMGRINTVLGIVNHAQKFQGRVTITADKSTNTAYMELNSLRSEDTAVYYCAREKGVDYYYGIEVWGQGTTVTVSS VL: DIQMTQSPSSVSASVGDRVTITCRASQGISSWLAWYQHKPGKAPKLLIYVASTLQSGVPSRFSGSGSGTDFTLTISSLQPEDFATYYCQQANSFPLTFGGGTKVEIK
0.491

Q: EC50 for HER2 HuMab 127 (antibody, V domains shown) VH: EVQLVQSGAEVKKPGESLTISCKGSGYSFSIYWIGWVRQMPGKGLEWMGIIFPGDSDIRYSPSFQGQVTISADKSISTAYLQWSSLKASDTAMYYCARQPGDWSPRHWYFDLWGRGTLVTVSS VL: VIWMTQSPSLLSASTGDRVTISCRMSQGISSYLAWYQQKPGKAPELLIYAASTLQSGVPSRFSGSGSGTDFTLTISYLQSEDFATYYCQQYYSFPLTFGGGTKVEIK ?
Ans: 2.29

Q: So what does the record say about EC50 for HER2 HuMab 025 (antibody, V domains shown, also called PC1014-025; TH1014-025) VH: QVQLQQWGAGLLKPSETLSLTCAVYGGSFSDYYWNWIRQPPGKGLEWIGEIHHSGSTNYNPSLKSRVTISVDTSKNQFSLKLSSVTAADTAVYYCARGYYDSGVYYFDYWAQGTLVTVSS VL: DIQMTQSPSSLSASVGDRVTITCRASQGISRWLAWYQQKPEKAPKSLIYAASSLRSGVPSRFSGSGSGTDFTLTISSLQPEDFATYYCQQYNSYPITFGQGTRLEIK ?
Ans: 0.58

Q: What does the data say about its EC50? Entry: HER2 HuMab 098 (antibody, V domains shown, also called PC1014-098; TH1014-098) VH: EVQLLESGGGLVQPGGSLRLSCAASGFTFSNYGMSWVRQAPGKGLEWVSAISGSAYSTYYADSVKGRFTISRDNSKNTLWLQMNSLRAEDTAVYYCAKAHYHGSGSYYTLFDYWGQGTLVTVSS VL: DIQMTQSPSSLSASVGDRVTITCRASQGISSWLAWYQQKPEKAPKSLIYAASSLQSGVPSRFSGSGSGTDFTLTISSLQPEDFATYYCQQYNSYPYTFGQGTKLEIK
Ans: 0.336

The measurements presented in this section are drawn from patent US20140170149A1.
